- assay_info: in vivo
- condition: rat, iv, 1 mg/kg
experimental_endpoint: clearance (mL/min/kg)
Give the value, in units of mL/min/kg, as a plain number.

Need clearance of CC(C)(C)c1ccc(C2CC(c3ccc(CN4CC(C(=O)[O-])C4)cc3)=NO2)cc1.[Na+] (stereo unspecified) , thanks.
13.1

---

- assay_info: in vivo
- condition: rat, iv, 1 mg/kg
experimental_endpoint: half-life

I would be grateful if you could share the reported half-life for CC(C)(C)c1ccc(C2CC(c3ccc(CN4CC(C(=O)[O-])C4)cc3)=NO2)cc1.[Na+] (stereo unspecified) .
2.4 h

---

- assay_info: in vivo
- condition: rat, iv, 10 mg/kg
experimental_endpoint: AUC(0-inf) (ng·h/mL)
Give just the numeric value; ng·h/mL need not be written.

// AUC(0-inf) lookup, key: CC(C)(C)c1ccc(C2CC(c3ccc(CN4CC(C(=O)[O-])C4)cc3)=NO2)cc1.[Na+] (stereo unspecified)
5190

---

- assay_info: in vivo
- condition: rat, po, 10 mg/kg
experimental_endpoint: half-life (h)
Form entry: value (h) — number only.

Look up half-life: CC(C)(C)c1ccc(C2CC(c3ccc(CN4CC(C(=O)[O-])C4)cc3)=NO2)cc1.[Na+] (stereo unspecified)
3.1

---

- assay_info: in vitro
- condition: rat, liver microsomes
experimental_endpoint: remaining at 0.5 h, 1 µM (%)
Please reply with the bare figure in % and do not write the unit itself.

Request the reported remaining at 0.5 h, 1 µM associated with CC(C)(C)c1ccc(C2CC(c3ccc(CN4CC(C(=O)[O-])C4)cc3)=NO2)cc1.[Na+] (stereo unspecified)
95.1

---

- assay_info: in vivo
- condition: rat, po, 10 mg/kg
experimental_endpoint: Tmax (h)
Field format: number, assumed h, no unit text.

Give its Tmax value. Item: CC(C)(C)c1ccc(C2CC(c3ccc(CN4CC(C(=O)[O-])C4)cc3)=NO2)cc1.[Na+] (stereo unspecified)
2.3

---

- assay_info: in vivo
- condition: rat, iv, 1 mg/kg
experimental_endpoint: Vd

Which measured Vd value corresponds to CC(C)(C)c1ccc(C2CC(c3ccc(CN4CC(C(=O)[O-])C4)cc3)=NO2)cc1.[Na+] (stereo unspecified) ?
2.6 L/kg

---

- assay_info: in vitro
- condition: mouse, microsomes
# remaining at 0.5 h, 1 µM values compiled below

Worked examples, 4 compounds total:
1) COC(=O)C1CN(Cc2ccc(-c3cn(-c4ccc(OC(C)C)c(Cl)c4)nn3)cc2)C1 = 28.8%
2) CC(C)Oc1ccc(C2CC(c3ccc(CN4CCC(C(=O)O)CC4)cc3)=NO2)cc1Cl (stereo not given) = 84.5%
3) COC(=O)C1CN(Cc2ccc(-n3cc(-c4ccc(OC(C)C)c(Cl)c4)nn3)cc2)C1 = 19%
4) CC(C)Oc1ccc(-n2cc(-c3ccc(CN4CC(C(=O)O)C4)cc3)nn2)cc1Cl = > 99%

Continue with the compound presented below.
What does the data say about its remaining at 0.5 h, 1 µM? Entry: CC(C)(C)c1ccc(C2CC(c3ccc(CN4CC(C(=O)[O-])C4)cc3)=NO2)cc1.[Na+] (stereo not given)
96.7%

---

- assay_info: in vivo
- condition: rat, po, 10 mg/kg
experimental_endpoint: Cmax (ng/mL)
Answer format: numeric, ng/mL implied, no suffix.

Name the recorded Cmax for CC(C)(C)c1ccc(C2CC(c3ccc(CN4CC(C(=O)[O-])C4)cc3)=NO2)cc1.[Na+] (stereo unspecified) .
1070
